# studyTarget: mouse VISTA (mVISTA) (Mus musculus, UniProt Q9D659)
# Construct: expressed in transfected cells; host or cells: Human embryonic kidney 293T cells
# Sequence (Q9D659 33-308): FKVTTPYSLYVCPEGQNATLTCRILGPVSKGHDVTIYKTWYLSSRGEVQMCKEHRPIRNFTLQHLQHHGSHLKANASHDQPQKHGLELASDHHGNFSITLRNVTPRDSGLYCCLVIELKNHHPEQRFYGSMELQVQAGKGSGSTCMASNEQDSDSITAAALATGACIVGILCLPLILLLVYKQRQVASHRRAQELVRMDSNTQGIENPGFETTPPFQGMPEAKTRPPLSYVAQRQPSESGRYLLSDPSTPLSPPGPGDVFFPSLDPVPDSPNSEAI
# experimentNotes: Cell-Based Binding High-Content Assay For mVISTA (HC CBA mVISTA)
# statedConditions: read-out: HC CBA mVISTA IC50
Positions of bridges follow the written chain, without caps; N, C: chain ends. Non-standard residues stand in square brackets, D forms with d. Residues, ends and D or L forms follow the SMILES beside them. Phe(3-Me) = Cc1cccc(C[C@H](N)C(=O)O)c1; Ahp(2) = CCCCC[C@H](N)C(=O)O; NMeNle = CCCC[C@H](NC)C(=O)O; NHexGly = CCCCCCNCC(=O)O; Nle = CCCC[C@H](N)C(=O)O

{"molecule": "CCCCCCN1CC(=O)N[C@@H](Cc2ccc(O)cc2)C(=O)N[C@@H](CCCC)C(=O)N[C@@H](CC(N)=O)C(=O)N[C@@H](CCCNC(=N)N)C(=O)N(C)[C@@H](CCCC)C(=O)N[C@@H](CCCCC)C(=O)N2CCC[C@H]2C(=O)N[C@@H](C(C)C)C(=O)N[C@@H](CC(=O)O)C(=O)N[C@H](C(=O)NCC(=O)O)CSCC(=O)N[C@@H](Cc2ccccc2)C(=O)N[C@@H](Cc2cccc(C)c2)C(=O)N[C@@H](CC(=O)O)C1=O [compound 1345] ({CH2CO}-F[Phe(3-Me)]D[NHexGly]Y[Nle]NR[NMeNle][Ahp(2)]PVDCG-OH; thioether N-14)", "resultUnit": "nM", "IC50": 12.7}
{"molecule": "CCCCCCN1CC(=O)N[C@@H](Cc2ccc(O)cc2)C(=O)N[C@@H](CCCC)C(=O)N[C@@H](CC(=O)O)C(=O)N[C@@H](CCCNC(=N)N)C(=O)N[C@@H](CC(C)C)C(=O)N[C@@H](CCCCC)C(=O)N2CCC[C@H]2C(=O)N[C@@H](C(C)C)C(=O)N[C@@H](CC(=O)O)C(=O)N[C@H](C(=O)N[C@@H](CC(=O)O)C(N)=O)CSCC(=O)N[C@@H](Cc2ccccc2)C(=O)N[C@@H](Cc2c[nH]c3ccccc23)C(=O)N[C@@H](CC(=O)O)C1=O [Example 1352] ({CH2CO}-FWD[NHexGly]Y[Nle]DRL[Ahp(2)]PVDCD-NH2; thioether N-14)", "resultUnit": "nM", "IC50": 12.3}

These measurements were taken from patent US20240218022A1.
